We begin with pIC50 values for Tyrosine-protein kinase JAK2 (Homo sapiens, UniProt O60674), as collected from the published literature.
pIC50: −log10 of the molar value.

// solved cases for pIC50 follow
compound	pIC50
Cn1cc(-c2cc3nccn3c(-c3cnn(C(CC#N)c4cccc(Cl)c4)c3)n2)cn1 (stereo not shown)	> 8.00
N#CCC1(n2cc(-c3nc(Nc4cnn(CCN5CCOCC5)c4)nc4ccsc34)cn2)CCOCC1	> 7.30
CCOC(=O)c1cnc2[nH]ccc2c1N[C@H]1C[C@@H](NS(=O)(=O)c2cc(C#N)ccn2)C1	7.00 to 8.00

Lab note: next compound to report on.
Ask: Provide one value: measured pIC50 of "CCC(CC)n1cc(-c2nc(-c3cnn(C4CN(C(=O)C(=O)N(C)C)C4)c3)cn3nccc23)cn1"
Reply: 7.00 to 8.00

###

A compilation of published pIC50 results with UniProtKB O60674.
Quick note: pIC50 means taking -log10 of the concentration in moles per liter.

Known pIC50 results, listed for orientation:
compound	pIC50
NC(=O)c1cc(-c2ccc(OC3CCNCC3)c(Cl)c2)nc2c1[nH]c1cc(N3CCOCC3)ccc12	8.15
N#Cc1cc(-c2ncnc(Nc3ccc(N4CCN(C5COC5)CC4)cc3)n2)ccc1OC1CCS(=O)(=O)CC1	6.27
COc1cc(Nc2ncnc(-c3ccc(OC4CCOCC4)c(C#N)c3)n2)ccc1N1CCN(C(C)=O)CC1	7.17
C[C@H](O)C(=O)N1CC[C@H](Oc2ccc(-c3ncnc(Nc4ccc(N5CCC6(CC5)COC6)cc4)n3)cc2C#N)[C@H](F)C1	6.32
C[C@H](O)C(=O)N1CC[C@H](Oc2ccc(-c3ncnc(Nc4ccc(N5CCN(C6COC6)CC5)cc4)n3)cc2C#N)C(F)(F)C1 (single isomer, unassigned)	6.70

Ask: Give pIC50 for this entry on UniProtKB O60674: "COc1ccc(-c2cc(C(N)=O)c3[nH]c4cc(N5CCOCC5)ccc4c3n2)cc1F"
Reply: 9.00

Ask: System UniProtKB O60674. Read-out pIC50. Item "N#CCC(=O)N1CC[C@H](Oc2c(F)cc(-c3ncnc(Nc4ccc(N5CCN(C6COC6)CC5)cc4)n3)cc2C#N)[C@H](F)C1" . Report value.
Reply: 6.03

Ask: Retrieve pIC50 on UniProtKB O60674; query COc1ccc(-n2cc(Nc3ncc(Cl)c(NC4CC5CN(C(=O)CC#N)CC5C4)n3)cn2)cn1 (centres unmarked)
Reply: 7.80

###

Literature-derived IC50 for Tyrosine-protein kinase JAK2 (Homo sapiens, UniProt O60674) follows.

Consider the following illustrative entries.
compound	value_reported
CCC(CC)n1cc(-c2nc(-c3cnn(CCN4CCCC4)c3)cn3nccc23)cn1	0.01 to 0.1 µM
C[C@@H]1OC(=O)N[C@@H]1C(=O)N1CC[C@H](Oc2ccc(-c3ncnc(Nc4ccc(N5CCN(C6COC6)CC5)cc4)n3)cc2C#N)[C@H](F)C1	0.959 µM
CN1CCC(N2C(=O)c3cc4nc(-c5c(NC[C@@H](O)COc6cccc7c6OC(F)C(F)(F)O7)cc[nH]c5=O)[nH]c4cc3C2=O)CC1 (stereo partly drawn)	0.5 to 5 µM
COc1ccc(Nc2nccc(-c3cnn(C(CC#N)C4CCCC4)c3)n2)cc1 (racemic)	< 0.1 µM
Cc1cc(OCC(O)CNc2cc[nH]c(=O)c2-c2nc3cc4c(cc3[nH]2)C(=O)N(C2CCN(C)CC2)C4=O)ccc1Cl (stereo not drawn)	5 to 15 µM
NC(=O)c1cc(-c2ccc(CN3CCOCC3)c(Cl)c2)cc2c1[nH]c1cc(-c3ccc(N4CCOCC4)nc3)ccc12	0.917 µM
Cn1cc(-c2cc3nccn3c(-c3cnn(C4(CC#N)CC5(CCCCC5)C4)c3)n2)cn1	0.01 to 0.1 µM
N#Cc1cc(-c2ncnc(Nc3ccc(N4CCN(C5COC5)CC4)cc3)n2)ccc1OCCN1CCN(C(N)=O)CC1	≥ 1 µM
N#CCC(=O)N1CCC[C@@H](Nc2c(-c3ncco3)cnc3[nH]ccc23)C1	≤ 0.01 µM
CC(=O)N1CCC2(CCC(N(C)c3ncnc4[nH]ccc34)CC2)CC1	0.01 to 0.1 µM

Ask: // output IC50; input "CCS(=O)(=O)N1CC(CC#N)(n2cc(-c3nc(Nc4cnn(C5CN(C)C5)c4)nc4ccsc34)cn2)C1" ; system Tyrosine-protein kinase JAK2 (Homo sapiens, UniProt O60674)
Reply: < 0.05 µM

Ask: Look up and report measured IC50 (Tyrosine-protein kinase JAK2 (Homo sapiens, UniProt O60674)) for the following compound: CN(c1ncnc2[nH]ccc12)N1CCCC(NC(=O)CC#N)C1 (stereo not drawn)
Reply: > 1 µM

Ask: Answer briefly: IC50 recorded on Tyrosine-protein kinase JAK2 (Homo sapiens, UniProt O60674) for N#CCC(C1CCCC1)n1cc(-c2ncnc3[nH]ccc23)c(NCCN2CCOCC2)n1 (stereo not drawn)
Reply: < 0.02 µM

Ask: Provide Tyrosine-protein kinase JAK2 (Homo sapiens, UniProt O60674) IC50 reading for CN1CCN(C(=O)c2ccc(Nc3nccc(-c4cnn(C(CC#N)C5CC5)c4)n3)cc2)CC1 (racemic) .
Reply: < 0.1 µM

Ask: # return IC50 of "Cc1cc(C)n(C[C@H](O)CNc2cc[nH]c(=O)c2-c2nc3cc4c(cc3[nH]2)C(=O)N(C2CCN(C)CC2)C4=O)n1" (system: Tyrosine-protein kinase JAK2 (Homo sapiens, UniProt O60674))
Reply: 5 to 15 µM

###

Assembled from different publications: IC50 for Tyrosine-protein kinase JAK2 (Homo sapiens).

Recorded results for 8 molecules are shown here.
molecule	IC50
O=C(NCCC(F)(F)F)c1nn(Cc2ccncc2)c2c1CN(c1ncnc3[nH]ccc13)CC2	100 to 500 nM
CN(c1ncnc2[nH]ccc12)C1CCC2(CC1)CCN(C(=O)c1cc3ccccc3s1)CC2	100 to 1000 nM
Cn1cc(-c2cc3nccn3c(-c3cnn(C4(CC#N)CN(CCCF)C4)c3)n2)cn1	100 to 1000 nM
N#Cc1cc(-c2ncnc(Nc3ccc(N4CCN(C5COC5)CC4)cc3)n2)ccc1O[C@H]1CCN(C(=O)[C@@H]2CCCO2)C[C@H]1F	≥ 1000 nM
N#CCC1(n2cc(-c3ccnc4[nH]ccc34)cn2)CN(C2CCN(C(=O)C3CCC(F)(F)CC3)CC2)C1	> 100 nM
Cc1nnc(C(=O)N2CC[C@H](Oc3ccc(-c4ncnc(Nc5ccc(C6CCN(C)CC6)c(C)c5)n4)cc3C#N)[C@H](F)C2)[nH]1	78 nM
CCCS(=O)(=O)NC12CC(n3c(C)nc4cnc5[nH]ccc5c43)(C1)C2	244 nM
Cn1cc(-c2cc3nccn3c(-c3cnn(C(CC#N)C4CCC4)c3)n2)cn1 (stereo not drawn)	10 to 100 nM

Ask: Tell me its IC50 on Tyrosine-protein kinase JAK2 (Homo sapiens): "COc1cc(C#N)ccc1OC[C@H](O)CNc1ccnc(O)c1-c1nc2cc3c(cc2[nH]1)C(=O)N(C1CCN(C)CC1)C3=O"
Reply: 500 to 5000 nM

Ask: Enter recorded IC50 with Tyrosine-protein kinase JAK2 (Homo sapiens) for "COc1cccc(F)c1C(=O)N1CCC(N2CC(CC#N)(n3cc(-c4ncnc5[nH]ccc45)cn3)C2)CC1" here.
Reply: ≤ 10 nM

Ask: Report value: IC50, system: Tyrosine-protein kinase JAK2 (Homo sapiens), molecule: "Cc1ccc(NC(=O)c2cc(C(F)(F)F)ccc2C(F)(F)F)cc1-c1ccc2c(c1)[nH]c1ncncc12"
Reply: > 1000 nM

Ask: # lookup: Tyrosine-protein kinase JAK2 (Homo sapiens) IC50, key = "CN(C)c1ccc2cc1COCCCCNC(=O)c1ccc(c(F)c1)-c1ccnc(n1)N2"
Reply: 11 to 100 nM

Ask: Identify measured IC50 obtained with Tyrosine-protein kinase JAK2 (Homo sapiens) for "C[C@@H]1C[C@H](Oc2ccc(-c3ncnc(Nc4ccc(N5CCN(C6COC6)CC5)cc4)n3)cc2C#N)CCN1C(=O)CO" .
Reply: 182 nM

Ask: Jot down IC50 (Tyrosine-protein kinase JAK2 (Homo sapiens)) of CN1CCC(COc2ccc(-c3ncnc(Nc4ccc(N5CCN(C6COC6)CC5)cc4)n3)cc2C#N)CC1=O (stereo not drawn) .
Reply: ≥ 1000 nM

Ask: Report IC50 on Tyrosine-protein kinase JAK2 (Homo sapiens) for this entry: COCCC(C1CCCC1)n1cc(-c2nc(-c3cnn(C)c3)cc3nccn23)cn1 (stereo not drawn)
Reply: > 1000 nM

###

Record: compiled pIC50 on Tyrosine-protein kinase JAK2 (Homo sapiens, UniProt O60674) from multiple reports.
pIC50: −log10 of the molar value.

Record excerpt, results attached:
compound	measure	value_reported
N#CCC1CCN(n2c(CCO)nc3cnc4[nH]ccc4c32)CC1	pIC50	8.41
N#CCC1(n2cc(-c3ncnc4[nH]ccc34)cn2)CN(C2CCN(C(=O)c3ccc(C#N)cc3)CC2)C1	pIC50	< 7.00
Cc1nc(S(=O)(=O)N2CCC(N3CC(CC#N)(n4cc(-c5ncnc6[nH]ccc56)cn4)C3)CC2)cn1C	pIC50	≥ 8.00
N#CCC(C1CCCC1)n1cc(-c2ccnc(Nc3ccc(N4CCNCC4)cc3)n2)cn1 (racemic)	pIC50	> 7.00
Nc1cc2ccc1-c1ccnc(n1)Nc1ccc(OC3CC(F)(F)C3)c(c1)COCCCCNC2=O	pIC50	6.00 to 7.00
CCC(=O)c1cnc(Nc2cnc(O[C@@H]3CCN(C)C3)cn2)cc1Nc1nccc(-c2ncn(C)n2)c1OC	pIC50	≤ 6.30
N#CCC1(n2cc(-c3c(F)cnc4[nH]ccc34)cn2)CN(C2CCN(C(=O)c3c(F)cncc3F)CC2)C1	pIC50	7.30 to 8.00

Moving on to the next compound.
Ask: Name the recorded pIC50 of CN(c1ncnc2[nH]ccc12)N1CCCC(CNC(=O)CC(F)(F)F)C1 (centres unmarked) , assay system Tyrosine-protein kinase JAK2 (Homo sapiens, UniProt O60674).
Reply: < 6.00
